// herbicidal effect rating lookup, one value per entry
system: SETVI; test: Preemergence herbicidal evaluation; type: in vivo; parameters: scale not given here; settings: 0.0313-0.0320 kg/ha
Respond using a number only.

Field: example entries. Status: answers known.
| structureAsSmiles | experimentalTarget | herbicidal effect rating |
| --- | --- | --- |
| O=C1C2=C(CCCC2)C(=O)N1c1ccc2snc(-c3ccccc3)c2c1 | SETVI | 0.0 |
| Cc1nsc2ccc(N3C(=O)C4=C(CCCC4)C3=O)cc12 | SETVI | 0.0 |

Query string: Please look up its herbicidal effect rating: Cn1c(C(F)(F)F)cc(=O)n(-c2ccc3snc(-c4ccccc4)c3c2)c1=O
Result string: 9.0

Query string: Please look up its herbicidal effect rating: CN(C)C(=O)c1nsc2ccc(-n3c(=O)cc(C(F)(F)F)n(C)c3=O)cc12
Result string: 2.5

Query string: Please look up its herbicidal effect rating: O=C1C2=C(CCCC2)C(=O)N1c1ccc2sncc2c1
Result string: 0.0

----------
// herbicidal effect rating lookup, one value per entry
tested on: ORYSAT Rice, Tebonnet; test: Tolerance of transplanted rice to post-transplant application (Table III); assay type: in vivo, Oryza sativa; parameters: scale not given here; conditions: 0.0313 kg/ha, crop tolerance
Respond using a number only.

Field: example entries. Status: answers known.
| compound | endpoint | observed |
| --- | --- | --- |
| COC(=O)COc1cc(C)c(C)cc1-c1nsc2ccc(-n3c(=O)cc(C(F)(F)F)n(C)c3=O)cc12 | herbicidal effect rating | 4.0 |
| Cn1c(C(F)(F)F)cc(=O)n(-c2ccc3snc(-c4ccccc4)c3c2)c1=O | herbicidal effect rating | 4.0 |

Could you now look at the following compound, please?
Query string: Please look up its herbicidal effect rating: COC(=O)C(C)Oc1cc(C)c(C)cc1-c1nsc2ccc(-n3c(=O)cc(C(F)(F)F)n(C)c3=O)cc12 (stereo not drawn)
Result string: 4.0

----------
// herbicide rating (0-9) lookup, one value per entry
tested on: Wheat, Winter, cv Riband, Triticum aestivum; experiment: Postemergence herbicidal evaluation, TRZAWR; assay type: in vivo; details: 0.2500 kg/ha
Respond using a number only.

Field: example entries. Status: answers known.
| compound | observed |
| --- | --- |
| COC(=O)COc1cc(C)c(C)cc1-c1nsc2ccc(-n3c(=O)cc(C(F)(F)F)n(C)c3=O)cc12 | 9.0 |
| COC(=O)C(C)Oc1cc(C)ccc1-c1nsc2ccc(-n3c(=O)cc(C(F)(F)F)n(C)c3=O)cc12 (stereo not drawn) | 9.0 |
| CCc1ccc(-c2nsc3ccc(-n4c(=O)cc(C(F)(F)F)n(C)c4=O)cc23)cc1 | 2.0 |
| COC(=O)C(C)Oc1cc(C)c(C)cc1-c1nsc2ccc(-n3c(=O)cc(C(F)(F)F)n(C)c3=O)cc12 (stereo not drawn) | 8.5 |

Query string: Please look up its herbicide rating (0-9): Cc1cc(O)c(-c2nsc3ccc(-n4c(=O)cc(C(F)(F)F)n(C)c4=O)cc23)cc1C
Result string: 5.0

Query string: Please look up its herbicide rating (0-9): COc1ccc(C)cc1-c1nsc2ccc(-n3c(=O)cc(C(F)(F)F)n(C)c3=O)cc12
Result string: 5.5

Query string: Please look up its herbicide rating (0-9): COC(=O)COc1cc(C)ccc1-c1nsc2ccc(-n3c(=O)cc(C(F)(F)F)n(C)c3=O)cc12
Result string: 9.0

Query string: Please look up its herbicide rating (0-9): Cn1c(C(F)(F)F)cc(=O)n(-c2ccc3snc(-c4ccccc4)c3c2)c1=O
Result string: 3.0

Query string: Please look up its herbicide rating (0-9): COc1cc(C)ccc1-c1nsc2ccc(-n3c(=O)cc(C(F)(F)F)n(C)c3=O)cc12
Result string: 7.0
